These measurements were taken from patent US8461328B2.

# study system: UniProtKB P29597
# Sequence (P29597 873-1187): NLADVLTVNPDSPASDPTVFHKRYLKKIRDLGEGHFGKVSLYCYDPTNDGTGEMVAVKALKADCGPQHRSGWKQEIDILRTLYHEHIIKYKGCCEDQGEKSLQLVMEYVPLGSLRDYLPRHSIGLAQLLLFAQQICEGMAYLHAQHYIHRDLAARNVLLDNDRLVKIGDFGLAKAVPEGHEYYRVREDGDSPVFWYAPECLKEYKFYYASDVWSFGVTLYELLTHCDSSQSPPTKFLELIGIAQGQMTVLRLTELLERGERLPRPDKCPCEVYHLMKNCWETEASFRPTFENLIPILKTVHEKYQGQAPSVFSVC
pKi: −log10 of the molar value.
Decide using pKi: a value greater than or equal to 7 is Yes, a smaller one is No.

Identify whether the reported pKi of the following compound is 7 or greater: CCOC(=O)NCCc1nc2cnc3[nH]ccc3c2n1C1CCN(CC)CC1(F)F (single isomer, unassigned)
No

hey, is pKi for this one >= 7? CC(O)c1nc2cnc3[nH]ccc3c2n1C1CC2CCC1O2 (single isomer, unassigned) [Example 936]
No

Check the entry `N#CCN1CCC[C@H]1C(=O)N1CCC(n2cnc3cnc4[nH]ccc4c32)CC1` : does pKi equal or exceed 7?
No

Reported pKi reaches at least 7 for CC(C)N1CC(c2nc3cnc4[nH]ccc4c3n2C2CCN(CCC#N)CC2)CC1=O (racemic) ?
No

Item `OCc1nc2cnc3[nH]ccc3c2n1C1CCOCC1` with pKi of 7 or above?
Yes

Is it the case that `CC1(n2nnc3cnc4[nH]ccc4c32)CCN(CCC#N)CC1` has pKi reaching or exceeding 7?
No

Is pKi for OCc1nc2cnc3[nH]ccc3c2n1C1CCCOC1 (single isomer, unassigned) at or above 7?
Yes

Is reported pKi greater than or equal to 7 here: `O=S(=O)(Cc1ccccc1)N1CC[C@@H](n2cnc3cnc4[nH]ccc4c32)C1`
No
